- SYSTEM_TESTED: Glycogen synthase kinase-3 beta (Homo sapiens)
- SETUP_CONDITIONS: Compound concentration 20.0 uM
- Description: Thermal Shift Assay. Domain: start/stop: M26-R383
Answer each item with its documented ΔTm.
Report as a plain number; the unit °C is understood.

q: What does the record list as ΔTm for "O=C(c1cc(Cl)c(O)c(Cl)c1)N1CS(=O)(=O)c2ccccc21" ?
a: 0.51

q: Suppose we examine the molecule "COc1cc2c(cc1-c1c(C)noc1C)[nH]c1nc(C)nc(Nc3cc(C4CC4)nn3C)c12" ; what ΔTm value has been reported?
a: 0.26

q: # ΔTm lookup, item "COC(=O)C1=C(C(=O)OC)[C@@]2([C@@H](Cc3ccc(C)cc3)Nc3ccccc3)C=C[C@@H]1O2"
a: -1.68

q: Please look up its ΔTm: "O=C(NCCCCCCCCNC(=O)C(Cl)Cl)C(Cl)Cl"
a: -1.79

q: Entry "COc1cc2c(NC3CCN(CC4CCCCC4)CC3)nc(N3CCCN(C(C)C)CC3)nc2cc1OCCCN1CCCCC1" has what ΔTm?
a: -0.33

q: Can you share its ΔTm? I mean this molecule: "O=C(NCc1ccc(Cl)cc1)C1CCN(S(=O)(=O)c2cc(Cl)cc(Cl)c2)CC1"
a: -1.43

q: Could you tell me which ΔTm is on file for "Cc1c(NC(=O)c2cc(C(N)=O)nc3cc(F)ccc23)c(C(F)(F)F)nn1Cc1ccc(C#N)cc1" ?
a: 0.78

q: For "O=C(C=Cc1ccc(O)cc1)c1ccc(O)cc1O" , what is its reported ΔTm?
a: 2.87

q: // lookup ΔTm for CN(C)CC(c1ccc(O)cc1)C1(O)CCCCC1 (centres undefined)
a: -1.41

q: Requested field: ΔTm. Item: "Cc1cc(C(=O)CN2CCC(O)CC2)c(C)n1-c1ccc(C#N)cc1"
a: -0.73

q: For "COc1ccc(/C=C/C(=O)NO)c(-c2ccc(-c3ccccc3)cc2)c1" , what is its reported ΔTm?
a: 3.08

q: I would be grateful if you could share the reported ΔTm for "CC(C)Cn1c(=O)n(C)c(=O)c2c(C(=O)N3CC[C@@H](O)C3)c(Cc3ccnc4ccccc34)sc21" .
a: -1.09

q: What value of measured ΔTm is listed for "NC(=O)c1cc(F)cc2c1C(=O)N(C1CCN(C3CCC(F)(F)CC3)CC1)C2" ?
a: -0.85

q: Need ΔTm of COc1ccc(-c2ccc(-c3cn(C(=O)N4CCCCC4c4ccccc4)nn3)cc2)cc1 (centres undefined) , thanks.
a: -1.61

q: Bench note: what ΔTm did "CC(=O)N[C@@H](C)C(=O)N[C@@H](CCC(=O)O)C(=O)N[C@H](C(=O)N[C@@H](C=O)CC(=O)O)C(C)C" show?
a: -0.69

q: Using the record for "CCCCNc1cc(C(=O)O)cc(S(N)(=O)=O)c1Oc1ccccc1" , report its ΔTm.
a: -0.41

q: Field request: ΔTm | item: "O=C(O)CCNc1cc(N2CCc3ccccc3CC2)nc(-c2ccccn2)n1"
a: 0

q: Reported ΔTm for "CCN(CCN(C)C)C(=O)CNCc1cc(C(N)=O)ccn1" : what is it?
a: 0.25

q: For the molecule shown here, "CCCCCCCCCCCCCCCCNNC(=O)c1cccs1" , give the reported ΔTm.
a: -1.02

Origin of the recorded values: ChEMBL document CHEMBL5724796
